Item-by-item account of self-cleavage
B1: Osa-1-4 twister ribozyme (parent)
chain: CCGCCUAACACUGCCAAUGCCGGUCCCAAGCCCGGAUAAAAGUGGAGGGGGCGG

# Variants of: B1
# method-summary: self-cleavage, relative activity (ratio to wild type); higher = more cleavage; co-transcriptional
// return a plain number; no unit text

Some solved entries appear below for comparison.
>>> df
   mutant_code  experimental_result
0    A28G C26G                 0.21
1    C11G G19U                 0.05
2    A38G G47C                 0.08
3    A28C U37C                 1.01
4     A7U G47A                 0.05

[Q] Reported self-cleavage for A39C U24G : what is it?
[A] 0.03

[Q] Quick check: self-cleavage of A16C U24G ?
[A] 0.04

[Q] I'd like to know its self-cleavage. The variant in question is A39C U43C
[A] 0.16

[Q] Find the recorded self-cleavage belonging to A10U G22A and report it.
[A] 0.05

[Q] If you can, please state the reported self-cleavage value of C32G G30A .
[A] 0.03

[Q] What measured self-cleavage goes with A28U C20A ?
[A] 0.9

[Q] Which value of self-cleavage has been reported for G47A G48A in the records?
[A] 0.08

[Q] Please look up its self-cleavage: A40G C31G
[A] 0.08

[Q] So what's the measured self-cleavage for this one? C15A G19C
[A] 0.38

[Q] self-cleavage for A28U C11G ?
[A] 0.12

[Q] Please give the measured self-cleavage for this variant: C27U G23C
[A] 0.03
